Test system: Danio rerio larvae (5 dpf)
Experiment: 1-h baseline activity (% time moving, periods 1-6) minus DMSO control (percentage points); higher = more locomotor activity than DMSO larvae
Settings: 10 µM; exposure time: 3 h pre-incubation + 3 h imaging
Structures can show the parent of a compound that is named as a salt.
TEST_READOUT: 1-h baseline activity

>  <COMPOUND>
O=c1n(CCCN2CCN(c3cccc(Cl)c3)CC2)nc2ccccn12 [Trazodone hydrochloride]

>  <MEAS_VALUE>
-3.8

$$$$
>  <COMPOUND>
N#Cc1ccc2[nH]cc(CCCCN3CCN(c4ccc5oc(C(N)=O)cc5c4)CC3)c2c1 [Vilazodone hydrochloride]

>  <MEAS_VALUE>
-24.2

$$$$
>  <COMPOUND>
CCCCCCCN(CC)CCCC(O)c1ccc(NS(C)(=O)=O)cc1 (stereo not given) [Ibutilide hemifumarate]

>  <MEAS_VALUE>
-6.03

$$$$
>  <COMPOUND>
CCc1nc(N)nc(N)c1-c1ccc(Cl)cc1

>  <MEAS_VALUE>
-1.81

$$$$
>  <COMPOUND>
O=C1CCc2ccc(OCCCCN3CCN(c4cccc(Cl)c4Cl)CC3)cc2N1

>  <MEAS_VALUE>
6.58

$$$$

###

Measured excitability values are reported for all entries that follow.
Test system: Danio rerio larvae (5 dpf)
Assay: excitability (activity period 17 minus period 16, 1-s interval sound) minus DMSO control (percentage points); higher = more acoustic excitability than DMSO larvae
Details: 10 µM; exposure time: 3 h pre-incubation + 3 h imaging
Where a name gives a salt, the structure may show the parent alone.

>  <COMPOUND>
CC1=Nc2ccc(Cl)cc2S(=O)(=O)N1 [Diazoxide]

>  <excitability>
3.88

$$$$
>  <COMPOUND>
CC(C)(C#N)c1cc(Cn2cncn2)cc(C(C)(C)C#N)c1 [Anastrozole]

>  <excitability>
3.43

$$$$
>  <COMPOUND>
COC(=O)C1=C(C)NC(C)=C(C(=O)OC(C)C)C1c1cccc2nonc12 (configuration not stated) [Isradipine]

>  <excitability>
15.3

$$$$
>  <COMPOUND>
Cc1c(-c2ccc(O)cc2)n(Cc2ccc(OCCN3CCCCCC3)cc2)c2ccc(O)cc12 [Bazedoxifene acetate]

>  <excitability>
15.4

$$$$
>  <COMPOUND>
CCOC(=O)C1=C(C)NC(C)=C(C(=O)OC)C1c1cccc(Cl)c1Cl (configuration not stated) [Felodipine]

>  <excitability>
-10.3

$$$$
>  <COMPOUND>
CCCCCCCCc1ccc(CCC(N)(CO)CO)cc1

>  <excitability>
14.6

$$$$
>  <COMPOUND>
CN(C)CCC[C@@]1(c2ccc(F)cc2)OCc2cc(C#N)ccc21 [Escitalopram oxalate]

>  <excitability>
14.5

$$$$
>  <COMPOUND>
OC(CNCC(O)C1CCc2cc(F)ccc2O1)C1CCc2cc(F)ccc2O1 (configuration not stated) [Nebivolol hydrochloride]

>  <excitability>
12.7

$$$$
>  <COMPOUND>
CCCc1nc2c(C)cc(-c3nc4ccccc4n3C)cc2n1Cc1ccc(-c2ccccc2C(=O)O)cc1 [Telmisartan]

>  <excitability>
15.1

$$$$
>  <COMPOUND>
CC(c1cc2ccccc2s1)N(O)C(N)=O (configuration not stated) [Zileuton]

>  <excitability>
6.27

$$$$
>  <COMPOUND>
Nc1cccc2c1CN(C1CCC(=O)NC1=O)C2=O (configuration not stated) [Lenalidomide]

>  <excitability>
-1.97

$$$$
>  <COMPOUND>
CC(C)C(=O)OCC(=O)[C@@]12O[C@H](C3CCCCC3)O[C@@H]1C[C@H]1[C@@H]3CCC4=CC(=O)C=C[C@]4(C)[C@H]3[C@@H](O)C[C@@]12C [Ciclesonide]

>  <excitability>
6.47

$$$$
>  <COMPOUND>
CCCN(CCc1cccs1)[C@H]1CCc2c(O)cccc2C1 [Rotigotine hydrochloride]

>  <excitability>
13.6

$$$$
>  <COMPOUND>
CC(C)c1ccc2oc3nc(N)c(C(=O)O)cc3c(=O)c2c1 [Amlexanox]

>  <excitability>
5.26

$$$$
>  <COMPOUND>
COc1ccc(C[C@@H](C)NC[C@H](O)c2ccc(O)c(NC=O)c2)cc1 [Arformoterol tartrate]

>  <excitability>
4.62

$$$$
>  <COMPOUND>
Nc1nc(F)nc2c1ncn2[C@@H]1O[C@H](CO)[C@@H](O)[C@@H]1O [Fludarabine]

>  <excitability>
1.97

$$$$
>  <COMPOUND>
C[C@@H](O[C@H]1OCCN(Cc2n[nH]c(=O)[nH]2)[C@H]1c1ccc(F)cc1)c1cc(C(F)(F)F)cc(C(F)(F)F)c1 [Aprepitant]

>  <excitability>
8.09

$$$$

###

System: Danio rerio larvae (5 dpf)
Assay: combined upward orientation toward moving lines (periods 7-14) minus DMSO control (percentage points); higher = more orientation with moving lines than DMSO larvae
Conditions: 10 µM; exposure time: 3 h pre-incubation + 3 h imaging
Where a name gives a salt, the structure may show the parent alone.
TEST_READOUT: combined upward orientation toward moving lines

>  <MOLECULE>
CN1CC2c3ccccc3Oc3ccc(Cl)cc3C2C1 (centres undefined) [Asenapine maleate]

>  <MEAS_VALUE>
-7.05

$$$$
>  <MOLECULE>
CC(C)C(=O)Nc1ccc([N+](=O)[O-])c(C(F)(F)F)c1 [Flutamide]

>  <MEAS_VALUE>
-15.3

$$$$
>  <MOLECULE>
OCCN(CCO)c1nc(N2CCCCC2)c2nc(N(CCO)CCO)nc(N3CCCCC3)c2n1

>  <MEAS_VALUE>
-2.19

$$$$
>  <MOLECULE>
C#C[C@]1(O)CC[C@H]2[C@@H]3CCC4=CC(=O)CC[C@@H]4[C@H]3CC[C@@]21CC

>  <MEAS_VALUE>
5.76

$$$$
>  <MOLECULE>
NC(=O)N1c2ccccc2C=Cc2ccccc21 [Carbamazepine]

>  <MEAS_VALUE>
-1.82

$$$$
>  <MOLECULE>
CC(=O)S[C@@H]1CC2=CC(=O)CC[C@]2(C)[C@H]2CC[C@@]3(C)[C@@H](CC[C@@]34CCC(=O)O4)[C@H]12

>  <MEAS_VALUE>
-2.59

$$$$
>  <MOLECULE>
Cc1ccccc1C(=O)Nc1ccc(C(=O)N2CCCC(O)c3cc(Cl)ccc32)c(C)c1 (centres undefined)

>  <MEAS_VALUE>
-0.0581

$$$$
>  <MOLECULE>
O=C(O[C@@H]1C[C@@H]2C[C@H]3C[C@H](C1)N2CC3=O)c1c[nH]c2ccccc12 [Dolasetron mesylate]

>  <MEAS_VALUE>
-0.866

$$$$
>  <MOLECULE>
OCCOCCN1CCN(C2=Nc3ccccc3Sc3ccccc32)CC1 [Quetiapine hemifumarate]

>  <MEAS_VALUE>
-3.4

$$$$
>  <MOLECULE>
CCCN(CCc1cccs1)[C@H]1CCc2c(O)cccc2C1 [Rotigotine hydrochloride]

>  <MEAS_VALUE>
-7.46

$$$$
>  <MOLECULE>
Brc1c(NC2=NCCN2)ccc2nccnc12

>  <MEAS_VALUE>
-1.14

$$$$
>  <MOLECULE>
Cc1nc(Nc2ncc(C(=O)Nc3c(C)cccc3Cl)s2)cc(N2CCN(CCO)CC2)n1

>  <MEAS_VALUE>
-11

$$$$
>  <MOLECULE>
Cc1c(-c2ccc(O)cc2)n(Cc2ccc(OCCN3CCCCCC3)cc2)c2ccc(O)cc12 [Bazedoxifene acetate]

>  <MEAS_VALUE>
1.97

$$$$
>  <MOLECULE>
COC(c1ccccc1)(c1ccccc1)[C@H](Oc1nc(C)cc(C)n1)C(=O)O

>  <MEAS_VALUE>
-0.152

$$$$
>  <MOLECULE>
Cn1cnc([N+](=O)[O-])c1Sc1ncnc2[nH]cnc12

>  <MEAS_VALUE>
0.321

$$$$
>  <MOLECULE>
CCC(C)(C)C(=O)O[C@H]1C[C@@H](C)C=C2C=C[C@H](C)[C@H](CC[C@@H]3C[C@@H](O)CC(=O)O3)[C@H]21

>  <MEAS_VALUE>
-3.05

$$$$
>  <MOLECULE>
Nc1nc(Cl)nc2c1ncn2[C@@H]1O[C@H](CO)[C@@H](O)[C@@H]1F

>  <MEAS_VALUE>
-4.29

$$$$
>  <MOLECULE>
CCCCCOC(=O)Nc1nc(=O)n([C@@H]2O[C@H](C)[C@@H](O)[C@H]2O)cc1F

>  <MEAS_VALUE>
-0.314

$$$$
>  <MOLECULE>
CC(C)(C#N)c1cc(Cn2cncn2)cc(C(C)(C)C#N)c1

>  <MEAS_VALUE>
-0.152

$$$$
>  <MOLECULE>
Cc1ccc(NC(=O)c2ccc(CN3CCN(C)CC3)cc2)cc1Nc1nccc(-c2cccnc2)n1 [Imatinib mesylate]

>  <MEAS_VALUE>
-1.28

$$$$
>  <MOLECULE>
C=C1[C@H](CO)[C@@H](O)C[C@@H]1n1cnc2c(=O)[nH]c(N)nc21

>  <MEAS_VALUE>
-3.62

$$$$
>  <MOLECULE>
CC(C)(C(=O)c1cccnc1)c1cccnc1

>  <MEAS_VALUE>
-5.62

$$$$
>  <MOLECULE>
Cc1cccc(C)c1OCC(C)N (centres undefined) [Mexiletine hydrochloride]

>  <MEAS_VALUE>
-1.93

$$$$
>  <MOLECULE>
COCCCOc1cc(C[C@@H](C[C@H](N)[C@@H](O)C[C@H](C(=O)NCC(C)(C)C(N)=O)C(C)C)C(C)C)ccc1OC [Aliskiren hemifumarate]

>  <MEAS_VALUE>
-2.45

$$$$
